Tested on: HEK-293T
TEST: Multiplex assay against HEK293T
Format: toxicity, cell-based
STATED CONDITIONS: human, 24 h, 1 µM, compound concentration 1 uM, replicate 1
Please provide measured Population Apoptotic (%) for the entries that follow.
One number for each entry, in %.

Some compounds with known Population Apoptotic (%) results, for comparison:
[
  {
    "COMPOUND": "COc1cc(-n2cnc3cc(-c4ccc(Cl)cc4)sc3c2=O)ccc1OCCN1CCCC1",
    "Population Apoptotic (%)": 72
  },
  {
    "COMPOUND": "C=CC(=O)Nc1ccc2ncnc(Nc3ccc(OCc4cccc(F)c4)c(Cl)c3)c2c1.Cc1ccc(S(=O)(=O)O)cc1",
    "Population Apoptotic (%)": 45
  },
  {
    "COMPOUND": "Cc1c(-c2ccc(O)cc2)n(Cc2ccc(OCCN3CCCCCC3)cc2)c2ccc(O)cc12",
    "Population Apoptotic (%)": 44
  },
  {
    "COMPOUND": "Cc1nc(Nc2n[nH]c3c2CN(C(=O)N[C@H](CN(C)C)c2ccccc2)C3(C)C)c2sccc2n1",
    "Population Apoptotic (%)": 23
  },
  {
    "COMPOUND": "Cc1cc(C)cc(-c2cnc3cc(Cl)c(-c4cccc(O)c4)cc3c2OCCCN)c1",
    "Population Apoptotic (%)": 53
  },
  {
    "COMPOUND": "CC(C)(O)CNc1ncc(-c2ccnc(Nc3ccnc(Cl)c3)n2)c(CC2CC2)n1",
    "Population Apoptotic (%)": 49
  },
  {
    "COMPOUND": "C=CC(=O)Nc1cccc(C(=O)Nc2ccc(Nc3cc(-c4[nH]c(SC)nc4C)ccn3)cc2)c1",
    "Population Apoptotic (%)": 48
  },
  {
    "COMPOUND": "Cc1csc2c(N[C@@H](C)CN3CCN(S(=O)(=O)c4ccc(Cl)c(Cl)c4)CC3)ncnc12",
    "Population Apoptotic (%)": 57
  },
  {
    "COMPOUND": "CN1CCCC(n2nc(Cc3ccc(Cl)cc3)c3ccccc3c2=O)CC1.Cl (stereo unspecified) [AZELASTINE HYDROCHLORIDE]",
    "Population Apoptotic (%)": 56
  },
  {
    "COMPOUND": "C=CC(=O)Nc1cc2c(Nc3ccc(F)c(Cl)c3)ncnc2cc1OCCCN1CCOCC1.Cl.Cl [CANERTINIB DIHYDROCHLORIDE]",
    "Population Apoptotic (%)": 79
  }
]

Count: 3. Required value per item: Population Apoptotic (%).
1. Cl.N#Cc1ccc2[nH]cc(CCCCN3CCN(c4ccc5oc(C(N)=O)cc5c4)CC3)c2c1 [VILAZODONE HYDROCHLORIDE]
2. CN1CCC[C@@H]1CCO[C@](C)(c1ccccc1)c1ccc(Cl)cc1.O=C(O)/C=C/C(=O)O [CLEMASTINE FUMARATE]
3. OC1(c2ccc(Cl)cc2)CCN(Cc2c[nH]c3ccccc23)CC1

Reply:
52
59
50
